Listing of entries alongside the reported OD at 560 nm.
Target: T1, human ANGPTL3/8 complex (human, UniProt Q9Y5C1 17-460; Q6UXH0 22-198, limits assumed)
T1 construct: also called hANGPTL3/8 complex; ANGTPL3/8 complex
T1 sequence 1: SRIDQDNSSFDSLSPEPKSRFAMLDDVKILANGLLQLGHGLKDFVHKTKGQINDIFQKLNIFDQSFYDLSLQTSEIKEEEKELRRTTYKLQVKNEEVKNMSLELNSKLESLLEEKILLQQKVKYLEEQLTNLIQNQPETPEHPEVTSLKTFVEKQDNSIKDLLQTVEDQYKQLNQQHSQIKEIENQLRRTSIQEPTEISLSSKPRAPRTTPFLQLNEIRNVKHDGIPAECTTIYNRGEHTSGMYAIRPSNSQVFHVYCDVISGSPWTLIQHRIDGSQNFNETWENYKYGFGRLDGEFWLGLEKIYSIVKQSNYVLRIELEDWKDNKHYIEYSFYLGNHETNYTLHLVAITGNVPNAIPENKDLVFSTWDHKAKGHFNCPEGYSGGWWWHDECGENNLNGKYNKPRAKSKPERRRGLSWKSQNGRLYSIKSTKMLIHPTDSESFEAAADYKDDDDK
T1 sequence 2: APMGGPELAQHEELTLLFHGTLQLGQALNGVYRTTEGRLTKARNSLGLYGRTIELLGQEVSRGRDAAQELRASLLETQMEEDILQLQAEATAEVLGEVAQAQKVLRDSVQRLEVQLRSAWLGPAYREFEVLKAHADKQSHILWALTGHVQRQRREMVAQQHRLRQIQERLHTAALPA
Assay: ELISA; Ab captured by anti-human Fc; biotinylated antigen at 1.23 nM
Return type: number; implicit unit OD 560 nm.

Worked cases, OD at 560 nm given:
If you can, please state the reported OD at 560 nm value of Ab with LC variant having a E99Q mutation (SEQ ID NO:25) and a HC of SEQ ID NO:6 (antibody, human IgG4 S228P, kappa, F234A L235A, V domains shown, also called E99Q Variant Ab; E99Q Ab) VH: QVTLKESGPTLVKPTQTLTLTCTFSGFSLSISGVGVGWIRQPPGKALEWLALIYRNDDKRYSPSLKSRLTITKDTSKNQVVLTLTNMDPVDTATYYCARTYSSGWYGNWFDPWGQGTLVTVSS VL: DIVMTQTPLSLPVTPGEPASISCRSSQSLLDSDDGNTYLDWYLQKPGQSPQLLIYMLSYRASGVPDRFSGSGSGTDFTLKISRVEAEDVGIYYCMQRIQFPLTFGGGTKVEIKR .
0.575

If you can, please state the reported OD at 560 nm value of anti-ANGPTL3/8 complex Ab having a LC of SEQ ID NO:5 and a HC of SEQ ID NO:6 (antibody, human IgG4 S228P, kappa, F234A L235A, V domains shown, In the ELISA assays tested as IgG from CHO supernatants; also called the Ab) VH: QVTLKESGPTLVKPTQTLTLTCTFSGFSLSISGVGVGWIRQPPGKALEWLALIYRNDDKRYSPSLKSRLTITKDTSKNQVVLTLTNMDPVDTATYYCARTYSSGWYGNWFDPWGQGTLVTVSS VL: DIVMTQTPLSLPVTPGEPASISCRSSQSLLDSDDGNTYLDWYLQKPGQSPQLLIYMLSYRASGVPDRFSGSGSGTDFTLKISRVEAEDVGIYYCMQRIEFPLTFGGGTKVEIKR .
0.51

If you can, please state the reported OD at 560 nm value of Ab with LC variant having a D33A mutation (SEQ ID NO:22) and a HC of SEQ ID NO:6 (antibody, human IgG4 S228P, kappa, F234A L235A, V domains shown, also called D33A Variant Ab; D33A Ab) VH: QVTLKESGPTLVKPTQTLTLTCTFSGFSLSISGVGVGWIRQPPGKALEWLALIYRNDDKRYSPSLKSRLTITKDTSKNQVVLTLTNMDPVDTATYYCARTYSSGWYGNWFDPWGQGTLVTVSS VL: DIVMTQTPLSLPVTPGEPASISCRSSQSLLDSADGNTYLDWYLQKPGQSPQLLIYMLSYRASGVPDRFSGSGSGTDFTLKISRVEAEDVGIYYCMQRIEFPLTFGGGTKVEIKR .
0.491

Then this binder:
If you can, please state the reported OD at 560 nm value of Ab with LC variant having a D31S mutation (SEQ ID NO:21) and a HC of SEQ ID NO:6 (antibody, human IgG4 S228P, kappa, F234A L235A, V domains shown, also called D31S Variant Ab; D31S Ab) VH: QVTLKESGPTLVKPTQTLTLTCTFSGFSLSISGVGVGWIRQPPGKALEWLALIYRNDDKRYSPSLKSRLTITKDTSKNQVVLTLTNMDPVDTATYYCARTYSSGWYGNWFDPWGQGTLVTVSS VL: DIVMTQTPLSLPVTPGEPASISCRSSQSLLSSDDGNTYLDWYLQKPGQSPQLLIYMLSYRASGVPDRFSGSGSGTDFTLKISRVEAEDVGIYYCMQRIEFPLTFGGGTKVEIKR .
0.575
